PROTOCOL: Half life in ICR mouse at 25 mg/kg, po
Format: ADME, organism-based
TEST SETTINGS: in vivo
PARAMETER MEASURED: half-life (h)

| GIVEN SMILES | PARAMETER MEASURED | DATA VALUE |
| --- | --- | --- |
| CNC(=O)c1c(-c2ccc(O)cc2)oc2ccc(O)c(CN3CCCCC3)c12 | half-life | 9.88 |
| CCOC(=O)c1c(-c2ccc(OC)cc2)oc2ccc(OCCCCN3C(=O)/C(=N\OC)c4ccccc43)cc12 | half-life | 3.33 |

----------
Tested on: Staphylococcus epidermidis
PROTOCOL: Antibacterial activity against methicillin-sensitive Staphylococcus epidermidis
Type: functional
Below, each entry is listed with its recorded MIC90.

| GIVEN SMILES | MIC90, µg/mL |
| --- | --- |
| CN[C@H](CC(C)C)C(=O)N[C@H]1C(=O)N[C@@H](CC(N)=O)C(=O)N[C@H]2C(=O)N[C@H]3C(=O)N[C@H](C(=O)N[C@H](C(=O)O)c4cc(O)cc(O)c4-c4cc3ccc4O)[C@H](O)c3ccc(c(Cl)c3)Oc3cc2cc(c3O[C@@H]2O[C@H](CO)[C@@H](O)[C@H](O)[C@H]2O[C@H]2C[C@](C)(N)[C@H](O)[C@H](C)O2)Oc2ccc(cc2Cl)[C@H]1O | 1 |
| CCOC(=O)c1c(-c2ccc(OC)cc2)oc2ccc(OCCCCCN3C(=O)/C(=N\O)c4ccccc43)cc12 | 0.25 |
| CCOC(=O)c1c(-c2ccc(OC)cc2)oc2ccc(OCCCCCN3C(=O)C(=O)c4cc(F)ccc43)cc12 | 1 |
| CCO/N=C1\C(=O)N(CCCCCOc2ccc3oc(-c4ccc(OC)cc4)c(C(=O)OCC)c3c2)c2ccc(OC)cc21 | 1 |
